Tested on: zebrafish larvae
measurement.description: Bioconcentration factors (BCF) of PFAS in zebrafish larvae
conditions.used: zebrafish larvae, 0.5 µM exposure, 120 hpf, three replicates
reported.endpoint: BCF 0.5µM (L/kg)
Value expressed in L/kg; do not type the unit.

API: value(readout=BCF 0.5µM, system=zebrafish larvae) for record O=S(=O)([O-])C(F)(F)C(F)(F)C(F)(F)C(F)(F)C(F)(F)C(F)(F)F.[K+] [compound 26, Potassium perfluorohexanesulfonate] 55.2382

API: value(readout=BCF 0.5µM, system=zebrafish larvae) for record CNS(=O)(=O)C(F)(F)C(F)(F)C(F)(F)C(F)(F)C(F)(F)C(F)(F)C(F)(F)C(F)(F)F [compound 16, N-Methylperfluorooctanesulfonamide] 292.232

API: value(readout=BCF 0.5µM, system=zebrafish larvae) for record CCNS(=O)(=O)C(F)(F)C(F)(F)C(F)(F)C(F)(F)C(F)(F)C(F)(F)C(F)(F)C(F)(F)F [compound 24, N-Ethylperfluorooctanesulfonamide] 28.4424

API: value(readout=BCF 0.5µM, system=zebrafish larvae) for record O=C(O)C(F)(F)C(F)(F)C(F)(F)F [compound 12, Perfluorobutanoic acid] 2.559

API: value(readout=BCF 0.5µM, system=zebrafish larvae) for record O=C(O)C(F)(F)C(F)(F)C(F)(F)OC(F)(F)F [compound 28, Perfluoro(4-methoxybutanoic) acid] 5.238

API: value(readout=BCF 0.5µM, system=zebrafish larvae) for record O=C(O)C(F)(F)C(F)(F)C(F)F [compound 4, 4H-Perfluorobutanoic acid] 3.397

API: value(readout=BCF 0.5µM, system=zebrafish larvae) for record O=C(O)C(F)(F)C(F)(F)C(F)(F)C(F)(F)C(F)(F)F [compound 20, Perfluorohexanoic acid] 6.647

API: value(readout=BCF 0.5µM, system=zebrafish larvae) for record N.O=C(O)C(F)(F)C(F)(F)C(F)(F)C(F)(F)C(F)(F)C(F)(F)C(F)(F)F [compound 21, Ammonium perfluorooctanoate] 42.5265

API: value(readout=BCF 0.5µM, system=zebrafish larvae) for record O=S(=O)(O)CCC(F)(F)C(F)(F)C(F)(F)C(F)(F)F [compound 15, 4:2 Fluorotelomer sulfonic acid] 5.68

API: value(readout=BCF 0.5µM, system=zebrafish larvae) for record O=C(O)C(F)(F)C(F)(F)C(F)(F)C(F)(F)C(F)(F)C(F)(F)C(F)(F)F [compound 74, Perfluorooctanoic acid] 31.5419

API: value(readout=BCF 0.5µM, system=zebrafish larvae) for record O=S(=O)([O-])C(F)(F)C(F)(F)C(F)(F)C(F)(F)F.[K+] [compound 57, Potassium perfluorobutanesulfonate] 4.038

API: value(readout=BCF 0.5µM, system=zebrafish larvae) for record O=C(O)C(F)(F)C(F)(F)C(F)(F)C(F)(F)C(F)(F)C(F)(F)C(F)(F)C(F)(F)F [compound 17, Perfluorononanoic acid] 152.811

API: value(readout=BCF 0.5µM, system=zebrafish larvae) for record O=S(=O)(O)C(F)(F)C(F)(F)C(F)(F)C(F)(F)F [compound 73, Perfluorobutanesulfonic acid] 2.903

API: value(readout=BCF 0.5µM, system=zebrafish larvae) for record O=C(O)C(F)(F)OC(F)(F)C(F)(F)OC(F)(F)F [compound 54, Perfluoro-3,6-dioxaheptanoic acid] 2.103

API: value(readout=BCF 0.5µM, system=zebrafish larvae) for record O=C(O)CCC(F)(F)C(F)(F)C(F)(F)C(F)(F)C(F)(F)F [compound 14, 2H,2H,3H,3H-Perfluorooctanoic acid] 6.7299

API: value(readout=BCF 0.5µM, system=zebrafish larvae) for record OCC(F)(F)C(F)(F)C(F)(F)CO [compound 35, Hexafluoroamylene glycol] 1.573

API: value(readout=BCF 0.5µM, system=zebrafish larvae) for record OCC(F)(F)OC(F)(F)C(F)(F)OC(F)(F)CO [compound 32] 5.939

API: value(readout=BCF 0.5µM, system=zebrafish larvae) for record O=C(O)C=CC(F)(C(F)(F)F)C(F)(F)F [compound 56, 3-(Perfluoroisopropyl)-2-propenoic acid] 2.65

API: value(readout=BCF 0.5µM, system=zebrafish larvae) for record C[N+](C)(C)CCCNS(=O)(=O)C(F)(F)C(F)(F)C(F)(F)C(F)(F)C(F)(F)C(F)(F)C(F)(F)C(F)(F)F [compound 5] 48.14

API: value(readout=BCF 0.5µM, system=zebrafish larvae) for record O=C(O)C=C(C(F)(F)F)C(F)(F)F [compound 23] 1.831

API: value(readout=BCF 0.5µM, system=zebrafish larvae) for record O=S(=O)(O)C(F)(F)C(F)(F)C(F)(F)C(F)(F)C(F)(F)C(F)(F)C(F)(F)C(F)(F)F [compound 46, Perfluorooctanesulfonic acid] 270.546
